target: TLR2 (Mus musculus, UniProt Q9QUN7)
Construct: endogenous in cells
Sequence (Q9QUN7 25-784): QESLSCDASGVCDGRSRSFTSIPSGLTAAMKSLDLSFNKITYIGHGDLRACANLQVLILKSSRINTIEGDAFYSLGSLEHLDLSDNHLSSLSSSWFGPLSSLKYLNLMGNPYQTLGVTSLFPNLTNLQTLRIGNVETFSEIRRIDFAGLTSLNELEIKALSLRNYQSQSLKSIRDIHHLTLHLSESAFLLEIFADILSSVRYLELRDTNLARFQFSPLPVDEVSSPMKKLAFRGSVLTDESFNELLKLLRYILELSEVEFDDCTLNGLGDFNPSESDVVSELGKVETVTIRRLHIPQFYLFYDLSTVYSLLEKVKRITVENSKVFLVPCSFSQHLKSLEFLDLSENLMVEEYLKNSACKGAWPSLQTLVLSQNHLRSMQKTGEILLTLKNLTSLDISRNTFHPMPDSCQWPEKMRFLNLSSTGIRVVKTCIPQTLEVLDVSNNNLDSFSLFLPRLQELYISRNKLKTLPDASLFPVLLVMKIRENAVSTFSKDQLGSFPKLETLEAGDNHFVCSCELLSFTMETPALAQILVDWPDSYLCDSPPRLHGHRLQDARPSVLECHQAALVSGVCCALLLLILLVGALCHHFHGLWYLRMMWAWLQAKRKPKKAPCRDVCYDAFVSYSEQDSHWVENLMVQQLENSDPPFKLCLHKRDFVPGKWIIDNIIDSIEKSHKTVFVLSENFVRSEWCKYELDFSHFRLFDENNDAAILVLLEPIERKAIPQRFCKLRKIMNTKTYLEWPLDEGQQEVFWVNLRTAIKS
assay: TLR2 functional assay, cytokine release from RAW 264.7 mouse macrophage cell line
assay context: average of all runs
Method: Cells of the immune system respond to TLR agonists in part by secreting cytokines. Functional assays for TLR2 agonists measure cytokine release from purified immune cells or immortalized cell lines derived from immune cells. Cytokine release is measured by standard ELISA approaches or multiplexed analysis using the Meso Scale Discovery (MSD) platform. […]
Recorded EC50, one value per entry.

EC50 measured on CCCCCCCCC(=O)N[C@@H](Cn1cc(-c2ccc(C(=O)N3C[C@@H](C(=O)N[C@H]4C[C@@H]4c4ccccc4)[C@H](C(=O)N[C@H]4C[C@@H]4c4ccccc4)C3)cc2)nn1)C(=O)NCCCCCC [Compound 212] = 0.351 to 1 µM

compound CCCCCCCCCCCCCNC(=O)N[C@H]1CN(C(=O)c2ccc(C(=O)N3C[C@@H](C(=O)N[C@H]4C[C@@H]4c4ccccc4)[C@H](C(=O)N[C@H]4C[C@@H]4c4ccccc4)C3)cc2)C[C@@H]1OC [Compound 134] , EC50 observed: 0.351 to 1 µM

The value of EC50 measured for the compound CCCCCCCCCCCCCCNC(=O)N[C@@H]1CCCN(C(=O)c2ccc(C(=O)N3C[C@@H](C(=O)N[C@H]4C[C@@H]4c4ccccc4)[C@H](C(=O)N[C@H]4C[C@@H]4c4ccccc4)C3)cc2)C1 [Compound 206] turned out to be > 1 µM

GET /value?item= CCCCCCCCC(=O)N[C@@H](CNC(=O)c1ccc(C(=O)N2C[C@@H](C(=O)N[C@H]3C[C@@H]3c3ccccc3)[C@H](C(=O)N[C@H]3C[C@@H]3c3ccccc3)C2)cc1)C(=O)NCCCCCC [Compound 140] &field=EC50 returns 0.051 to 0.35 µM

Now consider the entry below.
Lab book: EC50 of CCCCCCCOC(=O)N[C@@H](CNC(=O)c1ccc(C(=O)N2C[C@@H](C(=O)N[C@H]3C[C@@H]3c3ccccc3)[C@H](C(=O)N[C@H]3C[C@@H]3c3ccccc3)C2)cc1)C(=O)NCCCCCC [Compound 227] noted as > 1 µM
